- target: Thyroid hormone receptor alpha (Homo sapiens, UniProt P10827)
- test-details: TRalpha-Binding Assay.
- condition-description: pH 7; 4 °C
Examples of compounds with documented pIC50 follow.
// pIC50 is dimensionless: -log10 of concentration (M)

COc1cccc(-c2cc(Oc3c(Cl)cc(CC(=O)O)cc3Cl)ccc2O)c1 6.53

Query :: Answer with the recorded pIC50 for the compound listed here: O=C(O)Cc1cc(Cl)c(Oc2ccc(O)c(-c3ccccc3)c2)c(Cl)c1
Result :: 6.82

Query :: Provide only the value of recorded pIC50 for O=C(O)Cc1cc(Cl)c(Oc2ccc(O)c(-c3ccccn3)c2)c(Cl)c1
Result :: 5.82

Query :: Provide measured pIC50 value, entry: O=C(O)Cc1cc(Cl)c(Oc2ccc(O)c(-c3cccc(O)c3)c2)c(Cl)c1
Result :: 5.94

Query :: Look up and state reported pIC50 for CC(C)c1cccc(-c2cc(Oc3c(Cl)cc(CC(=O)O)cc3Cl)ccc2O)c1
Result :: 6.91

* * *

Here the recorded log10 of IC50 is given for each entry.
- target: Thyroid hormone receptor alpha (Homo sapiens)
- Sequence (P10827 whole entry): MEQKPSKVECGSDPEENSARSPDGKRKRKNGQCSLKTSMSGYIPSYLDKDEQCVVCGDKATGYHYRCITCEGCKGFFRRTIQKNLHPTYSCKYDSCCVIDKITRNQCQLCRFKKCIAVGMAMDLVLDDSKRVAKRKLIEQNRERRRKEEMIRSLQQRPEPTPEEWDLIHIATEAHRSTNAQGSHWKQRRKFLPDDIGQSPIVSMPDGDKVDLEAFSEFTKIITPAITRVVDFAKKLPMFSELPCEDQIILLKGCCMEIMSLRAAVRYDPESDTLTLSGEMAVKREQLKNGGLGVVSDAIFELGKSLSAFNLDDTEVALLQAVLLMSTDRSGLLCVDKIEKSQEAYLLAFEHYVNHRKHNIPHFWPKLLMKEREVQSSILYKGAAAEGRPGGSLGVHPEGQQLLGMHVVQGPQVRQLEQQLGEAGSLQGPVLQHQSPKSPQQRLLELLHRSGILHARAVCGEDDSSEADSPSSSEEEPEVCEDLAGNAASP
- test-details: TRalpha-Binding Assay.
Lab note - IC50 converted to log10 from values in nM.

O=C(O)Cc1cc(Br)c(Oc2ccc(O)c(Oc3cccc(O)c3)c2)c(Br)c1 2.74
O=C(O)Cc1cc(Br)c(Oc2ccc(O)c(C(=O)NCc3ccccc3)c2)c(Br)c1 1.92
O=C(O)Cc1cc(Br)c(Oc2ccc(O)c(Oc3ccc(O)cc3)c2)c(Br)c1 2.37
COc1cccc(CCNC(=O)c2cc(Oc3c(Br)cc(CC(=O)O)cc3Br)ccc2O)c1 1.97

// below: log10 of IC50 requested for another compound
Query :: Report measured log10 of IC50; entry is O=C(O)Cc1cc(Br)c(Oc2ccc(O)c(C(=O)NCC(c3ccccc3)c3ccccc3)c2)c(Br)c1
Result :: 1.26

* * *

pIC50 for assorted compounds
- target: Thyroid hormone receptor alpha (Homo sapiens)
- test-details: TRalpha-Binding Assay.
The value called pIC50 is obtained by taking minus log10 of the concentration in mol/L.

O=C(O)Cc1cc(Br)c(Oc2ccc(O)c(C(=O)Nc3ccccc3)c2)c(Br)c1 6.37
O=C(O)Cc1cc(Br)c(Oc2ccc(O)c(C(=O)NCCc3ccccc3)c2)c(Br)c1 7.82
COc1ccc(CCNC(=O)c2cc(Oc3c(Br)cc(CC(=O)O)cc3Br)ccc2O)cc1 6.64
O=C(O)Cc1cc(Cl)c(Oc2ccc(O)c(C(=O)NCCc3ccccc3)c2)c(Cl)c1 6.90
O=C(O)Cc1cc(Br)c(Oc2ccc(O)c(Oc3cccc(C(F)(F)F)c3)c2)c(Br)c1 7.30
O=C(O)Cc1cc(Br)c(Oc2ccc(O)c(C(=O)NCCCCc3ccccc3)c2)c(Br)c1 6.55
O=C(O)Cc1cc(Br)c(Oc2ccc(O)c(Oc3ccccc3C(F)(F)F)c2)c(Br)c1 6.61
O=C(O)Cc1cc(Br)c(Oc2ccc(O)c(Oc3ccccc3)c2)c(Br)c1 6.91

We now examine a further compound.
Query :: // Input: O=C(O)Cc1cc(Br)c(Oc2ccc(O)c(Oc3ccc(C(F)(F)F)cc3)c2)c(Br)c1 . Output its pIC50 only.
Result :: 6.49
